Entries annotated with measured hepatic extraction ratio
Experiment: in vitro
Details: human, liver microsomes
Description: Metabolic stability in human liver microsomes assessed as hepatic extraction ratio
Just the number, please.

For "CCN(CC)C(=O)c1ccc(Nc2ncc(C(F)(F)F)c(N[C@@H]3CCC[C@H]3N(C)C)n2)cc1" the compound record lists hepatic extraction ratio as 0.66

For "CN(c1ccccc1CNc1nc(Nc2ccc(S(C)(=O)=O)cc2)ncc1C(F)(F)F)S(C)(=O)=O" the compound record lists hepatic extraction ratio as 0.93

---

Test: in vitro
Details: human, liver microsomes
Entries annotated with measured hepatic extraction ratio
Just the number, please.

In [3]: df
Out[3]:
                         structure_notation           outcome_measure  observed_result
0  CN(C)C(=O)c1cccc(Nc2ncc(C(F)(F)F)c(N[C@@H]3CCC[C@H]3N(C)C)n2)c1  hepatic extraction ratio             0.66

For "CN(c1cccc(CNc2nc(Nc3ccc4c(c3)CC(=O)N4)ncc2C(F)(F)F)c1)S(C)(=O)=O" the compound record lists hepatic extraction ratio as 0.59

For "CS(=O)(=O)c1ccccc1CNc1nc(Nc2ccc3c(c2)CC(=O)N3)ncc1C(F)(F)F" the compound record lists hepatic extraction ratio as 0.55

---

Entries annotated with measured IC50
Molecular target: Focal adhesion kinase 1 (Homo sapiens, UniProt Q05397)
Sequence (Q05397 whole entry): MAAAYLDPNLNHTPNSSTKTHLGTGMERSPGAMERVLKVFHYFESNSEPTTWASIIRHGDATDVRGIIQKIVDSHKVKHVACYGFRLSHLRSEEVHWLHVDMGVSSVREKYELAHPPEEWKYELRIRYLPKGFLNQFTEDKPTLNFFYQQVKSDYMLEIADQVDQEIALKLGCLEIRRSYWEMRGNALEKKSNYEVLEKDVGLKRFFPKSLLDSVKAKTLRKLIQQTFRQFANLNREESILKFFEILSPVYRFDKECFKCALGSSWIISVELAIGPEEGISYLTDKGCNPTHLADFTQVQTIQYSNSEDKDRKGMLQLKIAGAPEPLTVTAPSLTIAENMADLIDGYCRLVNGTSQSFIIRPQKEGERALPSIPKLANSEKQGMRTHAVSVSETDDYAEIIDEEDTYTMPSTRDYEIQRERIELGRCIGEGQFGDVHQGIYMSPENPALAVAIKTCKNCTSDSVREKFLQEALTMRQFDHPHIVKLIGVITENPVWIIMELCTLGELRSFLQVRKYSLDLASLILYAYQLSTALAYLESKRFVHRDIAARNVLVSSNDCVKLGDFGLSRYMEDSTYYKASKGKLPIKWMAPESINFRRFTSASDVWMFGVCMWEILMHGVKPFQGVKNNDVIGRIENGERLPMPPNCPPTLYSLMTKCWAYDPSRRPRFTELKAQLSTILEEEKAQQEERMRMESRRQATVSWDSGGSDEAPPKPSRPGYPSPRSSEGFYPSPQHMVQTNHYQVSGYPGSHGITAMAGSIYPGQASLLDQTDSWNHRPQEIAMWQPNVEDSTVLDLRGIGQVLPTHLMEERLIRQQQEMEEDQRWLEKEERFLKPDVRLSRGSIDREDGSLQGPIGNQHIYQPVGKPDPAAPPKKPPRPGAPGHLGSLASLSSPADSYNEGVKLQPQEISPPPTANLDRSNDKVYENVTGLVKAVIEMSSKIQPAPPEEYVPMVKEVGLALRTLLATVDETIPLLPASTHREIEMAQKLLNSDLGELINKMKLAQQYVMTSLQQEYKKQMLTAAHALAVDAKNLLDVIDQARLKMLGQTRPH
Experiment: Inhibition of GST-tagged FAK assessed as inhibition of poly-Glu-Tyr phosphorylation by fluorescence polarization assay
Give your result in µM as a bare value.

>>> df
                         structure_notation  observed_result
0  CN(C)C(=O)c1cccc(Nc2ncc(C(F)(F)F)c(N[C@@H]3CCC[C@H]3N(C)C)n2)c1                4

Let's switch to this molecule now.
For "CN(C)[C@@H]1CCC[C@H]1Nc1nc(Nc2ccncc2)ncc1C(F)(F)F" the molecule record lists IC50 as 6.9

---

Target or system Protein-tyrosine kinase 2-beta (Homo sapiens): recorded IC50 listed per item.

Before answering, review these 4 worked examples.
>>> df
                         structure_notation                                       tgt  outcome_measure  observed_result
0  O=C1Cc2cc(Nc3ncc(C(F)(F)F)c(NCc4ccccc4)n3)ccc2N1  Protein-tyrosine kinase 2-beta (Homo sapiens)             IC50           120 nM
1  CS(=O)(=O)c1ccccc1CNc1nc(Nc2ccc3c(c2)CC(=O)N3)ncc1C(F)(F)F  Protein-tyrosine kinase 2-beta (Homo sapiens)             IC50            15 nM
2  CS(=O)(=O)c1cccc(CNc2nc(Nc3ccc4c(c3)CC(=O)N4)ncc2C(F)(F)F)c1  Protein-tyrosine kinase 2-beta (Homo sapiens)             IC50        > 1100 nM
3  CN(C)[C@@H]1CCC[C@H]1Nc1nc(Nc2ccc3c(c2)CS(=O)(=O)N3)ncc1C(F)(F)F  Protein-tyrosine kinase 2-beta (Homo sapiens)             IC50            50 nM

Let's switch to this compound now.
"O=C1Cc2cc(Nc3ncc(Cl)c(NCc4ccccn4)n3)ccc2N1" on Protein-tyrosine kinase 2-beta (Homo sapiens) gives IC50 = > 1000 nM

---

Target: Focal adhesion kinase 1 (Homo sapiens)
Could you please mark yes for values of IC50 below 30 nM and no for values at or above it?

Bench note: check whether "CS(=O)(=O)c1ccccc1CNc1nc(Nc2ccc3c(c2)CC(=O)N3)ncc1C(F)(F)F" shows IC50 below 30 nM no

---

Entries annotated with measured hepatic extraction ratio
Assay: in vitro
Conditions: human, liver microsomes
Just the number, please.

>>> df
                         structure_notation           outcome_measure  observed_result
0  CN(C)[C@@H]1CCC[C@H]1Nc1nc(Nc2ccn3ccnc3c2)ncc1C(F)(F)F  hepatic extraction ratio             0.41
1  CS(=O)(=O)c1cccc(CNc2nc(Nc3ccc4c(c3)CC(=O)N4)ncc2C(F)(F)F)c1  hepatic extraction ratio             0.35

Let's switch to this molecule now.
For "CN(C)[C@@H]1CCC[C@H]1Nc1nc(Nc2ccncc2)ncc1C(F)(F)F" the molecule record lists hepatic extraction ratio as 0.48

---

Assay: Oral bioavailability in rat
Assay type: ADME, organism-based
Details: in vivo
Outcome measure: bioavailability

                         structure_notation  observed_result
0  Cn1ccc2cc(Nc3ncc(C(F)(F)F)c(NCc4ccccn4)n3)ccc21             < 5%

Let's switch to this compound now.
For "FC(F)(F)c1cnc(Nc2ccc3[nH]ncc3c2)nc1NCc1ccccn1" the compound record lists bioavailability as < 5%

---

Target or system Focal adhesion kinase 1 (Homo sapiens, UniProt Q05397): recorded IC50 listed per item.
Give your result in nM as a bare value.

Before answering, review these 3 worked examples.
>>> print(df.to_string())
                         structure_notation                                       tgt  outcome_measure  observed_result
0  Cc1cnc(Nc2ccc3c(c2)CC(=O)N3)nc1NCc1ccccn1  Focal adhesion kinase 1 (Homo sapiens, UniProt Q05397)             IC50             2200
1  CN(C)C(=O)c1cccc(Nc2ncc(C(F)(F)F)c(N[C@@H]3CCC[C@H]3N(C)C)n2)c1  Focal adhesion kinase 1 (Homo sapiens, UniProt Q05397)             IC50             3900
2  CN(c1ccccc1CNc1nc(Nc2ccc(S(C)(=O)=O)cc2)ncc1C(F)(F)F)S(C)(=O)=O  Focal adhesion kinase 1 (Homo sapiens, UniProt Q05397)             IC50             0.94

Let's switch to this compound now.
"CCN(CC)C(=O)c1ccc(Nc2ncc(C(F)(F)F)c(N[C@@H]3CCC[C@H]3N(C)C)n2)cc1" on Focal adhesion kinase 1 (Homo sapiens, UniProt Q05397) gives IC50 = 3300

---

Assay: in vitro
Details: human, liver microsomes
Entries annotated with measured hepatic extraction ratio

Before answering, review these 2 worked examples.
>>> df
                         structure_notation  observed_result
0    O=C1Cc2cc(Nc3nccc(NCc4ccccn4)n3)ccc2N1           < 0.26
1  O=C1Cc2cc(Nc3ncc(Cl)c(NCc4ccccn4)n3)ccc2N1           < 0.28

For "Cc1cnc(Nc2ccc3c(c2)CC(=O)N3)nc1NCc1ccccn1" the molecule record lists hepatic extraction ratio as < 0.3

---

Target or system Protein-tyrosine kinase 2-beta (Homo sapiens, UniProt Q14289): recorded IC50 listed per item.
Give your result in µM as a bare value.

>>> print(df.to_string())
                         structure_notation  outcome_measure  observed_result
0  CN(c1cccc(CNc2nc(Nc3ccc4c(c3)CC(=O)N4)ncc2C(F)(F)F)c1)S(C)(=O)=O             IC50             0.19

Let's switch to this compound now.
"CN(c1ccccc1CNc1nc(Nc2ccc(S(C)(=O)=O)cc2)ncc1C(F)(F)F)S(C)(=O)=O" on Protein-tyrosine kinase 2-beta (Homo sapiens, UniProt Q14289) gives IC50 = 0.035

---

Molecular target: Focal adhesion kinase 1 (Homo sapiens)
Could you please mark TRUE for values of IC50 below 0.03 µM and FALSE for values at or above it?

Past entries and their recorded results:
In [3]: df
Out[3]:
                         structure_notation                                     tgt  class_name
0  CS(=O)(=O)c1cccc(CNc2nc(Nc3ccc4c(c3)CC(=O)N4)ncc2C(F)(F)F)c1  Focal adhesion kinase 1 (Homo sapiens)        TRUE
1  O=C1Cc2cc(Nc3ncc(Cl)c(NCc4ccccn4)n3)ccc2N1  Focal adhesion kinase 1 (Homo sapiens)       FALSE
2  CN(C)[C@@H]1CCC[C@H]1Nc1nc(Nc2ccncc2)ncc1C(F)(F)F  Focal adhesion kinase 1 (Homo sapiens)       FALSE

Bench note: check whether "O=C1Cc2cc(Nc3ncc(C(F)(F)F)c(NCc4ccccc4)n3)ccc2N1" shows IC50 below 0.03 µM FALSE

Bench note: check whether "CN(c1cccc(CNc2nc(Nc3ccc4c(c3)CC(=O)N4)ncc2C(F)(F)F)c1)S(C)(=O)=O" shows IC50 below 0.03 µM TRUE

Bench note: check whether "O=C1Cc2cc(Nc3nccc(NCc4ccccn4)n3)ccc2N1" shows IC50 below 0.03 µM FALSE
